Tested on: HIV-1 RES056 (K103N + Y181C) double-mutant strain
Test: microbe, parasite or virus in culture
Assay type: cell-based
Details: CC50/EC50
property_name: SI RES056

>  <compound>
Cc1cc(-c2ccc(F)cc2)cc(C)c1Oc1nc(NC2CCN(Cc3ccc(C(N)=O)cc3)CC2)nc2ccsc12 [Compound 24]

>  <result_comparator>
=

>  <numeric_readout>
12

$$$$
>  <compound>
Cc1cc(-c2ccco2)cc(C)c1Oc1nc(NC2CCN(Cc3ccc(C(N)=O)cc3)CC2)nc2ccsc12 [Compound 12]

>  <result_comparator>
=

>  <numeric_readout>
10

$$$$
>  <compound>
Cc1cc(-c2cccc(C#N)c2)cc(C)c1Oc1nc(NC2CCN(Cc3ccc(C(N)=O)cc3)CC2)nc2ccsc12 [Compound 28]

>  <result_comparator>
=

>  <numeric_readout>
10

$$$$
>  <compound>
Cc1cc(-c2cccc(C#N)c2)cc(C)c1Oc1nc(NC2CCN(Cc3ccc(S(N)(=O)=O)cc3)CC2)nc2ccsc12 [Compound 27]

>  <result_comparator>
=

>  <numeric_readout>
40

$$$$
>  <compound>
Cc1cc(-c2ccccc2)cc(C)c1Oc1nc(NC2CCN(Cc3ccc(C(N)=O)cc3)CC2)nc2ccsc12 [Compound 20]

>  <result_comparator>
=

>  <numeric_readout>
10

$$$$
>  <compound>
Cc1cc(-c2cccc(N(C)C)c2)cc(C)c1Oc1nc(NC2CCN(Cc3ccc(C(N)=O)cc3)CC2)nc2ccsc12 [Compound 32]

>  <result_comparator>
=

>  <numeric_readout>
5

$$$$
>  <compound>
Cc1cc(-c2cccs2)cc(C)c1Oc1nc(NC2CCN(Cc3ccc(C(N)=O)cc3)CC2)nc2ccsc12 [Compound 16]

>  <result_comparator>
≥

>  <numeric_readout>
2

$$$$
>  <compound>
Cc1cc(-c2ccc(N(C)C)cc2)cc(C)c1Oc1nc(NC2CCN(Cc3ccc(S(N)(=O)=O)cc3)CC2)nc2ccsc12 [Compound 29]

>  <result_comparator>
=

>  <numeric_readout>
11

$$$$

###

Assay: In vivo pharmacokinetics in Wistar rat
Details: plasma, po, 20 mg/kg
property_name: AUC(0-inf) (ng·h/mL)

>  <chemical_smiles>
Cc1cc(-c2ccc(C#N)cc2)cc(C)c1Oc1nc(NC2CCN(Cc3ccc(C(N)=O)cc3)CC2)nc2ccsc12

>  <units>
ng·h/mL

>  <numeric_readout>
4760

$$$$

###

Experiment: In vivo pharmacokinetics in Wistar rat
Settings: plasma, po, 20 mg/kg

>  <chemical_smiles>
Cc1cc(-c2ccc(C#N)cc2)cc(C)c1Oc1nc(NC2CCN(Cc3ccc(C(N)=O)cc3)CC2)nc2ccsc12

>  <Tmax>
2 h

$$$$

###

Test: Cytotoxicity in mock-infected MT-4 cell cultures, MTT method
Settings: human, mock-infected MT-4 cells

>  <compound>
Cc1cc(-c2cccs2)cc(C)c1Oc1nc(NC2CCN(Cc3ccc(S(N)(=O)=O)cc3)CC2)nc2ccsc12 [Compound 15]

>  <result_comparator>
=

>  <CC50 at 5 days, µM>
21.5

$$$$
>  <compound>
Cc1cc(-c2ccco2)cc(C)c1Oc1nc(NC2CCN(Cc3ccc(C(N)=O)cc3)CC2)nc2ccsc12 [Compound 12]

>  <result_comparator>
=

>  <CC50 at 5 days, µM>
28.9

$$$$
>  <compound>
COc1ccc(-c2cc(C)c(Oc3nc(NC4CCN(Cc5ccc(S(N)(=O)=O)cc5)CC4)nc4ccsc34)c(C)c2)cc1 [Compound 21]

>  <result_comparator>
=

>  <CC50 at 5 days, µM>
16.6

$$$$
>  <compound>
Cc1cc(-c2ccccc2)cc(C)c1Oc1nc(NC2CCN(Cc3ccc(S(N)(=O)=O)cc3)CC2)nc2ccsc12 [Compound 19]

>  <result_comparator>
=

>  <CC50 at 5 days, µM>
21.3

$$$$
>  <compound>
Cc1cc(-c2cccs2)cc(C)c1Oc1nc(NC2CCN(Cc3ccc(C(N)=O)cc3)CC2)nc2ccsc12 [Compound 16]

>  <result_comparator>
≥

>  <CC50 at 5 days, µM>
20.5

$$$$
>  <compound>
Cc1cc(-c2ccc(F)cc2)cc(C)c1Oc1nc(NC2CCN(Cc3ccc(C(N)=O)cc3)CC2)nc2ccsc12 [Compound 24]

>  <result_comparator>
=

>  <CC50 at 5 days, µM>
6.8

$$$$
>  <compound>
Cc1cc(-c2ccc(C#N)cc2)cc(C)c1Oc1nc(NC2CCN(Cc3ccc(S(N)(=O)=O)cc3)CC2)nc2ccsc12 [Compound 25]

>  <result_comparator>
=

>  <CC50 at 5 days, µM>
5.31

$$$$
>  <compound>
Cc1cc(-c2ccccc2)cc(C)c1Oc1nc(NC2CCN(Cc3ccc(C(N)=O)cc3)CC2)nc2ccsc12 [Compound 20]

>  <result_comparator>
=

>  <CC50 at 5 days, µM>
17.5

$$$$
>  <compound>
O=C1Nc2ccc(Cl)cc2[C@@](C#CC2CC2)(C(F)(F)F)O1 [EFV, efavirenz, reference compound]

>  <result_comparator>
>

>  <CC50 at 5 days, µM>
6.33

$$$$
>  <compound>
Cc1ccnc2c1NC(=O)c1cccnc1N2C1CC1 [NVP, Nevirapine, reference compound]

>  <result_comparator>
>

>  <CC50 at 5 days, µM>
9.51

$$$$
>  <compound>
Cc1cc(-c2cccc(C#N)c2)cc(C)c1Oc1nc(NC2CCN(Cc3ccc(C(N)=O)cc3)CC2)nc2ccsc12 [Compound 28]

>  <result_comparator>
=

>  <CC50 at 5 days, µM>
4.16

$$$$
>  <compound>
Cc1cc(-c2ccc(C#N)cc2)cc(C)c1Oc1nc(NC2CCN(Cc3ccc(C(N)=O)cc3)CC2)nc2ccsc12 [Compound 26]

>  <result_comparator>
=

>  <CC50 at 5 days, µM>
5.48

$$$$
>  <compound>
Cc1cc(-c2ccoc2)cc(C)c1Oc1nc(NC2CCN(Cc3ccc(S(N)(=O)=O)cc3)CC2)nc2ccsc12 [Compound 13]

>  <result_comparator>
=

>  <CC50 at 5 days, µM>
15.6

$$$$
>  <compound>
Cc1cc(-c2ccsc2)cc(C)c1Oc1nc(NC2CCN(Cc3ccc(C(N)=O)cc3)CC2)nc2ccsc12 [Compound 18]

>  <result_comparator>
=

>  <CC50 at 5 days, µM>
17

$$$$
>  <compound>
Cc1cc(C#N)cc(C)c1Oc1nc(Nc2ccc(C#N)cc2)nc(N)c1Br [ETR, Etravirine, reference compound]

>  <result_comparator>
>

>  <CC50 at 5 days, µM>
4.59

$$$$
>  <compound>
Cc1cc(-c2ccsc2)cc(C)c1Oc1nc(NC2CCN(Cc3ccc(S(N)(=O)=O)cc3)CC2)nc2ccsc12 [Compound 17]

>  <result_comparator>
=

>  <CC50 at 5 days, µM>
15.4

$$$$
>  <compound>
Cc1cc(-c2ccc(F)cc2)cc(C)c1Oc1nc(NC2CCN(Cc3ccc(S(N)(=O)=O)cc3)CC2)nc2ccsc12 [Compound 23]

>  <result_comparator>
=

>  <CC50 at 5 days, µM>
16.9

$$$$
>  <compound>
Cc1cc(-c2ccc(N(C)C)cc2)cc(C)c1Oc1nc(NC2CCN(Cc3ccc(C(N)=O)cc3)CC2)nc2ccsc12 [Compound 30]

>  <result_comparator>
=

>  <CC50 at 5 days, µM>
23.5

$$$$
>  <compound>
Cc1cc(-c2ccc(N(C)C)cc2)cc(C)c1Oc1nc(NC2CCN(Cc3ccc(S(N)(=O)=O)cc3)CC2)nc2ccsc12 [Compound 29]

>  <result_comparator>
=

>  <CC50 at 5 days, µM>
18.3

$$$$
>  <compound>
COc1ccc(-c2cc(C)c(Oc3nc(NC4CCN(Cc5ccc(C(N)=O)cc5)CC4)nc4ccsc34)c(C)c2)cc1 [Compound 22]

>  <result_comparator>
=

>  <CC50 at 5 days, µM>
13.4

$$$$
>  <compound>
Cc1cc(-c2cccc(C#N)c2)cc(C)c1Oc1nc(NC2CCN(Cc3ccc(S(N)(=O)=O)cc3)CC2)nc2ccsc12 [Compound 27]

>  <result_comparator>
=

>  <CC50 at 5 days, µM>
14

$$$$
>  <compound>
Cc1cc(-c2cccc(N(C)C)c2)cc(C)c1Oc1nc(NC2CCN(Cc3ccc(S(N)(=O)=O)cc3)CC2)nc2ccsc12 [Compound 31]

>  <result_comparator>
=

>  <CC50 at 5 days, µM>
110

$$$$
>  <compound>
Cc1cc(-c2ccoc2)cc(C)c1Oc1nc(NC2CCN(Cc3ccc(C(N)=O)cc3)CC2)nc2ccsc12 [Compound 14]

>  <result_comparator>
=

>  <CC50 at 5 days, µM>
15.8

$$$$
>  <compound>
Cc1cc(-c2ccco2)cc(C)c1Oc1nc(NC2CCN(Cc3ccc(S(N)(=O)=O)cc3)CC2)nc2ccsc12 [Compound 11]

>  <result_comparator>
=

>  <CC50 at 5 days, µM>
13.5

$$$$
>  <compound>
Cc1cc(-c2cccc(N(C)C)c2)cc(C)c1Oc1nc(NC2CCN(Cc3ccc(C(N)=O)cc3)CC2)nc2ccsc12 [Compound 32]

>  <result_comparator>
=

>  <CC50 at 5 days, µM>
19.8

$$$$
